Task for the reader: assign each of the following compounds its reported Change (%) in heart rate.
tested on: Spontaneously Hypertensive Rats; assay: Test 1: antihypertensive effects (systolic tail artery blood pressure) and heart rate in spontaneously hypertensive rats, oral; format: in vivo, rat (male, SHR); details: SHR, oral 1 mg/Kg, maximum value

COc1cc2nc(N3CCN(c4ncc(C(=O)NC5CCCCC5)c(C)n4)CC3)nc(N)c2cc1OC [Example 45]	+4.2%

# map each compound to its Change (%) in heart rate
1. CCN(CC)C(=O)c1cnc(N2CCN(c3nc(N)c4cc(OC)c(OC)cc4n3)CC2)nc1NC(C)C [Example 78]
2. CCN(CC)C(=O)c1cnc(N2CCN(c3nc(N)c4cc(OC)c(OC)cc4n3)CC2)nc1SC [Example 53]

Marked response:
1: +23.7%; 2: +25.7%

# map each compound to its Change (%) in heart rate
1. COc1cc2nc(N3CCN(c4ncc5ccccc5n4)CC3)nc(N)c2cc1OC [Example 70]
2. CCOC(=O)c1cnc(N2CCN(c3nc(N)c4cc(OC)c(OC)cc4n3)CC2)nc1NC(C)C [Example 59]

Marked response:
1: +13.7%; 2: +5.7%

# map each compound to its Change (%) in heart rate
1. COc1cc2nc(N3CCN(c4ncc5c(n4)CN(C(C)C)C5=O)CC3)nc(N)c2cc1OC [Example 25]
2. COc1cc2nc(N3CCN(C4=NCc5c(ccn(C)c5=O)N4)CC3)nc(N)c2cc1OC [Example 34]
3. CCn1ccc2nc(N3CCN(c4nc(N)c5cc(OC)c(OC)cc5n4)CC3)ncc2c1=S [Example 16]
4. CCn1ccc2c(c1=O)CN=C(N1CCN(c3nc(N)c4cc(OC)c(OC)cc4n3)CC1)N2 [Example 35]

Marked response:
1: +12.9%; 2: +2.3%; 3: +7.5%; 4: +9.1%

# map each compound to its Change (%) in heart rate
1. CCNc1nc(N2CCN(c3nc(N)c4cc(OC)c(OC)cc4n3)CC2)ncc1C(=O)N(C)C [Example 79]
2. COC(=O)c1cnc(N2CCN(c3nc(N)c4cc(OC)c(OC)cc4n3)CC2)nc1NC(C)C [Example 62]
3. CCNc1nc(N2CCN(c3nc(N)c4cc(OC)c(OC)cc4n3)CC2)ncc1C(=O)N(CC)CC [Example 67]
4. COc1cc2nc(N3CCN(c4ncc5c(n4)CN(CCc4ccccc4)C5=O)CC3)nc(N)c2cc1OC [Example 89]
5. COc1cc2nc(N3CCN(c4nc(SC)c5c6c(sc5n4)CCCC6C)CC3)nc(N)c2cc1OC (centres unmarked) [Example 75]

Marked response:
1: +22.3%; 2: +7.6%; 3: +7.4%; 4: +5.8%; 5: +8.2%

# map each compound to its Change (%) in heart rate
1. COc1cc2nc(N3CCN(c4ncc(C(N)=O)c(C)n4)CC3)nc(N)c2cc1OC [Example 40]
2. CCOC(=O)c1cc2nc(N3CCN(c4nc(N)c5cc(OC)c(OC)cc5n4)CC3)ncc2c(=O)n1CC [Example 18]
3. CCNC(=O)c1cnc(N2CCN(c3nc(N)c4cc(OC)c(OC)cc4n3)CC2)nc1NCC [Example 66]
4. COc1cc2nc(N3CCN(c4nc(N(C)C)c5cc(OC)c(OC)cc5n4)CC3)nc(N)c2cc1OC [Example 73]
5. CCNc1nc(N2CCN(c3nc(N)c4cc(OC)c(OC)cc4n3)CC2)ncc1C(=O)OC(C)C [Example 61]

Marked response:
1: +5.8%; 2: +11.1%; 3: +3.8%; 4: +4.3%; 5: +12.4%

# map each compound to its Change (%) in heart rate
1. CCOC(=O)c1cnc(N2CCN(c3nc(N)c4cc(OC)c(OC)cc4n3)CC2)nc1C(=O)OCC [Example 84]
2. CCOC(=O)c1cnc(N2CCN(c3nc(N)c4cc(OC)c(OC)cc4n3)CC2)nc1O [Example 50]
3. COc1cc2nc(N3CCN(c4ncc5c(=O)n(CCO)ccc5n4)CC3)nc(N)c2cc1OC [Example 7]
4. CCn1ccc2nc(N3CCCN(c4nc(N)c5cc(OC)c(OC)cc5n4)CC3)ncc2c1=O [Example 82]
5. COc1cc2nc(N3CCN(c4ncc(C(=O)N(C)C)c(C)n4)CC3)nc(N)c2cc1OC [Example 46]

Marked response:
+2.2%
+2.9%
+2.8%
+5.8%
+7.4%

# map each compound to its Change (%) in heart rate
1. COc1cc2nc(N3CCN(c4ncc5c(n4)N(C)C(=O)C5)CC3)nc(N)c2cc1OC [Example 29]
2. CCNC(=O)Cc1cnc(N2CCN(c3nc(N)c4cc(OC)c(OC)cc4n3)CC2)nc1NCC [Example 63]
3. COc1cc2nc(N3CCN(c4ncc5c(n4)N(C)CCN(C)C5=O)CC3)nc(N)c2cc1OC [Example 76]
4. COc1cc2nc(N3CCN(c4ncc5c(n4)CNC5=O)CC3)nc(N)c2cc1OC [Example 22]
5. COc1cc2nc(N3CCN(c4ncc(C(=O)NN(C)C)c(C)n4)CC3)nc(N)c2cc1OC [Example 47]

Marked response:
["+10.1%", "+6.8%", "+2.9%", "+17.7%", "+6.3%"]

# map each compound to its Change (%) in heart rate
1. COc1cc2nc(N3CCN(c4ncc5c(n4)CN(CCO)C5=O)CC3)nc(N)c2cc1OC [Example 88]
2. COc1cc2nc(N3CCN(C(=O)C4CCCO4)CC3)nc(N)c2cc1OC (centres unmarked) [Terazosin, terazosin, reference compound]

Marked response:
["+5.8%", "+7.2%"]

Exam item: Provide the documented Change (%) in heart rate with Spontaneously Hypertensive Rats as the system for CCN(CC)C(=O)c1ccc(N2CCN(c3nc(N)c4cc(OC)c(OC)cc4n3)CC2)nc1 [Example 93]
Marked response: +8.0%
